- Assay info: in vivo
- Condition label: male, FVB, mouse, plasma, iv, 5 mg/kg
Parameter measured: Vd (L/kg)

{"Compound structure string": "CC(=O)O[C@H]1C(=O)[C@@]2(C)[C@H]([C@H](OC(=O)c3ccccc3)[C@]3(O)C[C@H](OC(=O)[C@H](O)[C@@H](NC(=O)c4ccccc4)c4ccccc4)C(C)=C1C3(C)C)[C@]1(OC(C)=O)CO[C@@H]1C[C@@H]2O", "Experimental value": 4.32}

---

- Assay info: in vivo
- Condition label: male, FVB, mouse, systemic (abdominal vein) plasma, po, 20 mg/kg

{"Compound structure string": "CC(=O)O[C@H]1C(=O)[C@@]2(C)[C@H]([C@H](OC(=O)c3ccccc3)[C@]3(O)C[C@H](OC(=O)[C@H](O)[C@@H](NC(=O)c4ccccc4)c4ccccc4)C(C)=C1C3(C)C)[C@]1(OC(C)=O)CO[C@@H]1C[C@@H]2O", "Cmax": "442 nM"}

---

- Assay info: in vivo
- Condition label: FVB, mouse, plasma, iv, 5 mg/kg

{"Compound structure string": "CC(=O)O[C@H]1C(=O)[C@@]2(C)[C@H]([C@H](OC(=O)c3ccccc3)[C@]3(O)C[C@H](OC(=O)[C@H](O)[C@@H](NC(=O)c4ccccc4)c4ccccc4)C(C)=C1C3(C)C)[C@]1(OC(C)=O)CO[C@@H]1C[C@@H]2O", "Output unit": "h", "MRT": 1.47}

---

- Assay info: in vivo
- Condition label: FVB, mouse, plasma, iv, 5 mg/kg
Parameter measured: Vd (L/kg)

{"Compound structure string": "CC(=O)O[C@H]1C(=O)[C@@]2(C)[C@H]([C@H](OC(=O)c3ccccc3)[C@]3(O)C[C@H](OC(=O)[C@H](O)[C@@H](NC(=O)c4ccccc4)c4ccccc4)C(C)=C1C3(C)C)[C@]1(OC(C)=O)CO[C@@H]1C[C@@H]2O", "Output unit": "L/kg", "Experimental value": 4.15}

---

- Condition label: FVB, mouse, portal vein plasma, oral, 2 mg/kg, Cpv of topotecan, topotecan 2 mg/kg po, bcrp KO mice

{"Molecule": "CC[C@@]1(O)C(=O)OCc2c1cc1n(c2=O)Cc2cc3c(CN(C)C)c(O)ccc3nc2-1 [topotecan]", "concentration at 30 min (nM)": 469}

---

- Assay info: in vivo
- Condition label: male, FVB, mouse, plasma, iv, 5 mg/kg
Parameter measured: AUC (µM·h)

{"Compound structure string": "CC(=O)O[C@H]1C(=O)[C@@]2(C)[C@H]([C@H](OC(=O)c3ccccc3)[C@]3(O)C[C@H](OC(=O)[C@H](O)[C@@H](NC(=O)c4ccccc4)c4ccccc4)C(C)=C1C3(C)C)[C@]1(OC(C)=O)CO[C@@H]1C[C@@H]2O", "Experimental value": 2.32}

---

- Assay info: in vivo
- Condition label: male, FVB, mouse, portal vein plasma, po, 20 mg/kg
Parameter measured: Cmax (nM)

{"Compound structure string": "CC(=O)O[C@H]1C(=O)[C@@]2(C)[C@H]([C@H](OC(=O)c3ccccc3)[C@]3(O)C[C@H](OC(=O)[C@H](O)[C@@H](NC(=O)c4ccccc4)c4ccccc4)C(C)=C1C3(C)C)[C@]1(OC(C)=O)CO[C@@H]1C[C@@H]2O", "Parameter measured": "Cmax", "Output unit": "nM", "Experimental value": 730}

---

- Assay info: in vivo
- Condition label: FVB, mouse, systemic (abdominal vein) plasma, po, 20 mg/kg

{"Compound structure string": "CC(=O)O[C@H]1C(=O)[C@@]2(C)[C@H]([C@H](OC(=O)c3ccccc3)[C@]3(O)C[C@H](OC(=O)[C@H](O)[C@@H](NC(=O)c4ccccc4)c4ccccc4)C(C)=C1C3(C)C)[C@]1(OC(C)=O)CO[C@@H]1C[C@@H]2O", "MRT [h]": 3.09}

---

- Condition label: male, FVB, mouse, portal vein plasma, oral, 2 mg/kg, Cpv of topotecan, topotecan 2 mg/kg po, WT mice, no inhibitor

{"Compound": "CC[C@@]1(O)C(=O)OCc2c1cc1n(c2=O)Cc2cc3c(CN(C)C)c(O)ccc3nc2-1 [topotecan]", "concentration at 30 min, nM": 196}

---

- Tested target: P-gp (Homo sapiens, UniProt P08183)
- Construct: host or cells: Caco-2
- Sequence (P08183 whole entry): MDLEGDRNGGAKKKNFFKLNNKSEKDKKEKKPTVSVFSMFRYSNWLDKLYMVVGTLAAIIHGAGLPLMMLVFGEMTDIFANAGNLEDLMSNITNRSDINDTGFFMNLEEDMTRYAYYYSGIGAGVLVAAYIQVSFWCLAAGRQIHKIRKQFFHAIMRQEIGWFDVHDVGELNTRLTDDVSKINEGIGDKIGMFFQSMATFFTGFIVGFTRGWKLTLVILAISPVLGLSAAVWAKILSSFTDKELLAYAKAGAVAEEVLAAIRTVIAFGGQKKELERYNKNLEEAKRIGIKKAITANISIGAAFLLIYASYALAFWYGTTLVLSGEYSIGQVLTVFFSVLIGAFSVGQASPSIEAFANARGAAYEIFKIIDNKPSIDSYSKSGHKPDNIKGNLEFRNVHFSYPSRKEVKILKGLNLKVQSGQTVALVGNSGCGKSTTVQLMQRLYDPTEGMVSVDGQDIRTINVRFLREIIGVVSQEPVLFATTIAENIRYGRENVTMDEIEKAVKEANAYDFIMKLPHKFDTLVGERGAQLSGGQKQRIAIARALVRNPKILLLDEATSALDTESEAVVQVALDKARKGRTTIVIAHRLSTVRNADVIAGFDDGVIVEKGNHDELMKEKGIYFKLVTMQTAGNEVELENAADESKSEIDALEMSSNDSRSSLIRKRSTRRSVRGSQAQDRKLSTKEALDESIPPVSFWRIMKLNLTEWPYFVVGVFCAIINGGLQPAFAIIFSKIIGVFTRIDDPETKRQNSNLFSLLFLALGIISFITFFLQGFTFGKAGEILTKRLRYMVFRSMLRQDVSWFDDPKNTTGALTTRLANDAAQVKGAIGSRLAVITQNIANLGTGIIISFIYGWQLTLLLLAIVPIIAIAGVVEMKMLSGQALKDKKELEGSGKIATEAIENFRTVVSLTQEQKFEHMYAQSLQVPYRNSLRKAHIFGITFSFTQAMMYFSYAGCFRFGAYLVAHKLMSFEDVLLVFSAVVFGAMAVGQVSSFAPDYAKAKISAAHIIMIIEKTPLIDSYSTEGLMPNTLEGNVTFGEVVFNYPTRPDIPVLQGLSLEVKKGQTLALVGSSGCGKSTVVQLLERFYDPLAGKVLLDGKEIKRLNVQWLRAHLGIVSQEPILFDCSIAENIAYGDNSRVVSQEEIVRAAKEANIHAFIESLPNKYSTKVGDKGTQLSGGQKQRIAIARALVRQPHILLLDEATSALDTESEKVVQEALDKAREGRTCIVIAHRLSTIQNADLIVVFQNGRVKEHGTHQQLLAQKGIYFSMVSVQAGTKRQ
- Assay info: Inhibition of P-gp-mediated transport of paclitaxel across Caco-2 cell monolayers
- Format: cell-based
- Condition label: Caco-2 monolayers; paclitaxel 5 μM; 50% decrease of Papp,BA; read-out: IC50 on Papp,BA of paclitaxel
# IC50 listing for each entry below

{"Compound structure string": "COc1cc2c(cc1OC)CN(CCc1ccc(NC(=O)c3cc(OC)c(OC)cc3NC(=O)c3cnc4ccccc4c3)cc1)CC2", "IC50 [nM]": 64}
{"Compound structure string": "COc1cc(C(=O)C(=O)N2CCCC[C@H]2C(=O)OC(CCCc2cccnc2)CCCc2cccnc2)cc(OC)c1OC", "IC50 [nM]": 4500}

---

- Assay info: in vivo
- Condition label: male, FVB, mouse, systemic (abdominal vein) plasma, po, 20 mg/kg
Parameter measured: AUC (µM·h)

{"Molecule": "CC(=O)O[C@H]1C(=O)[C@@]2(C)[C@H]([C@H](OC(=O)c3ccccc3)[C@]3(O)C[C@H](OC(=O)[C@H](O)[C@@H](NC(=O)c4ccccc4)c4ccccc4)C(C)=C1C3(C)C)[C@]1(OC(C)=O)CO[C@@H]1C[C@@H]2O [paclitaxel]", "Experimental value": 1.09}

---

- Assay info: in vivo
- Condition label: male, FVB, mouse, plasma, iv, 5 mg/kg

{"Compound structure string": "CC(=O)O[C@H]1C(=O)[C@@]2(C)[C@H]([C@H](OC(=O)c3ccccc3)[C@]3(O)C[C@H](OC(=O)[C@H](O)[C@@H](NC(=O)c4ccccc4)c4ccccc4)C(C)=C1C3(C)C)[C@]1(OC(C)=O)CO[C@@H]1C[C@@H]2O", "Output unit": "h", "MRT": 1.71}

---

- Assay info: in vivo
- Condition label: male, FVB, mouse, portal vein plasma, po, 20 mg/kg
Parameter measured: k el (s⁻¹)

{"Compound": "CC(=O)O[C@H]1C(=O)[C@@]2(C)[C@H]([C@H](OC(=O)c3ccccc3)[C@]3(O)C[C@H](OC(=O)[C@H](O)[C@@H](NC(=O)c4ccccc4)c4ccccc4)C(C)=C1C3(C)C)[C@]1(OC(C)=O)CO[C@@H]1C[C@@H]2O [paclitaxel]", "Parameter measured": "k el", "Output unit": "s⁻¹", "Experimental value": 0.000119}

---

# IC50 listing for each entry below
- Tested target: P-gp (Homo sapiens)
- Construct: host or cells: Caco-2
- Assay info: Inhibition of P-gp-mediated transport of paclitaxel across Caco-2 cell monolayers
- Format: cell-based
- Condition label: Caco-2 monolayers; paclitaxel 5 μM; inhibitor concentration to achieve 50% increase of Papp,AB; read-out: IC50 on Papp,AB of paclitaxel

{"Compound structure string": "COc1cc(C(=O)C(=O)N2CCCC[C@H]2C(=O)OC(CCCc2cccnc2)CCCc2cccnc2)cc(OC)c1OC", "IC50": "2680 nM"}
{"Compound structure string": "COc1cc2c(cc1OC)CN(CCc1ccc(NC(=O)c3cc(OC)c(OC)cc3NC(=O)c3cnc4ccccc4c3)cc1)CC2", "IC50": "234 nM"}

---

- Assay info: in vivo
- Condition label: male, FVB, mouse, systemic (abdominal vein) plasma, oral, 10 mg/kg

{"Compound structure string": "CC(=O)O[C@H]1C(=O)[C@@]2(C)[C@H]([C@H](OC(=O)c3ccccc3)[C@]3(O)C[C@H](OC(=O)[C@H](O)[C@@H](NC(=O)c4ccccc4)c4ccccc4)C(C)=C1C3(C)C)[C@]1(OC(C)=O)CO[C@@H]1C[C@@H]2O", "concentration at 30 min": "135 nM"}

---

- Assay info: in vivo
- Condition label: FVB, mouse, plasma, iv, 5 mg/kg
Parameter measured: clearance (L/h/kg)

{"Compound structure string": "CC(=O)O[C@H]1C(=O)[C@@]2(C)[C@H]([C@H](OC(=O)c3ccccc3)[C@]3(O)C[C@H](OC(=O)[C@H](O)[C@@H](NC(=O)c4ccccc4)c4ccccc4)C(C)=C1C3(C)C)[C@]1(OC(C)=O)CO[C@@H]1C[C@@H]2O", "Experimental value": 2.2}

---

- Assay info: in vivo
- Condition label: male, FVB, mouse, systemic (abdominal vein) plasma, po, 20 mg/kg
Parameter measured: k el (s⁻¹)

{"Compound structure string": "CC(=O)O[C@H]1C(=O)[C@@]2(C)[C@H]([C@H](OC(=O)c3ccccc3)[C@]3(O)C[C@H](OC(=O)[C@H](O)[C@@H](NC(=O)c4ccccc4)c4ccccc4)C(C)=C1C3(C)C)[C@]1(OC(C)=O)CO[C@@H]1C[C@@H]2O", "Parameter measured": "k el", "Experimental value": 0.000139}
